Examples of variants with documented one-hybrid fitness for binding NBS DNA follow.
B1: Caulobacter ParB omega fusion; a variant is named by its letters at X, in order, B8GW30 (parent)
chain: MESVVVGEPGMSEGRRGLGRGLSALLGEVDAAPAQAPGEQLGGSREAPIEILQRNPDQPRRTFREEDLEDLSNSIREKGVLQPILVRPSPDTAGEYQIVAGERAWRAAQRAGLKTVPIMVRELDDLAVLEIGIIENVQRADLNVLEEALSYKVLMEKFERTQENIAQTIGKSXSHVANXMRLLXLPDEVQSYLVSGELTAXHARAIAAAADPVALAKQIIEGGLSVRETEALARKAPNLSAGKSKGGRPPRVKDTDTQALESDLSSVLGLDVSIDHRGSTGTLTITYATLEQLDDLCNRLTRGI

variants of: B1; experiment: one-hybrid fitness for binding NBS DNA (the Noc-binding site; scaled: cognate 1, non-cognate 0); higher = stronger binding; settings: with NBS DNA site
Over roughly 81,000 sequences, “one-hybrid fitness for binding NBS DNA” has its median near -0.1; the highest 2% begin near 0.36. This excerpt belongs to a sample that is enriched for the highest values.

* QKSQ | ≤ 0.2
* NKNM | ≤ 0.2
* LLDV | ≤ 0.2
* DRYG | ≤ 0.2
* QKRQ | 0.415

Input line: Recorded one-hybrid fitness for binding NBS DNA for HEIR , please?
Output line: ≤ 0.2

Input line: Can you handle QMLQ next?
Output line: ≤ 0.2

Input line: Can you handle GAKV next?
Output line: ≤ 0.2

Input line: Can you handle QMRQ next?
Output line: 0.437

Input line: Can you handle QKNQ next?
Output line: 0.245

Input line: Can you handle ACCM next?
Output line: ≤ 0.2

Input line: Can you handle QMSQ next?
Output line: 0.242

Input line: Can you handle IIAL next?
Output line: ≤ 0.2

Input line: Can you handle ARKE next?
Output line: ≤ 0.2

Input line: Can you handle SNQT next?
Output line: ≤ 0.2
